These data points were gathered from the supplement of paper PMC4466140.

Molecular target: ScPex13
Test: SPOT peptide array binding signal intensity (averaged, normalized) (arbitrary units (background-subtracted, floor 0; scale differs between SH3 domains)); higher = stronger binding of the SH3 domain to the peptide
endpoint: SPOT peptide array binding signal intensity

| binder | valueReported |
| --- | --- |
| DKKTKPTPPPKPSHL | 138 |
| RRSKSLPITPKSIFN | ≤ 0 |
| APPPPPRRATPEKKP | 89.2 |
| PPLPRAPPVPPATFE | 95 |
